Target of assay: Alpha-2C adrenergic receptor (Homo sapiens)
Method summary: compounds altering alpha2C-coupled GIRK flux – cell-based, HEK293 alpha2C/GIRK1/2, thallium flux, primary screen (AID 624);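 further: slope of fluorescence ratio to pre-addition baseline per second over 15 to 24 s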
Measurement conditions: thallium flux BTC fluorescence, at 10 µM, actives lie on both sides
Activity calls are given as the source filed them.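 How the source made its calls: active means fluorescence slope after compound addition differing from the mean of all screened samples at 99.7% confidence, in either direction; inactive means the rest.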
The reader will find reported slope values listed item by item below.

Below: 2 compounds and their reported slope.
Compound: CCCN(C(=O)CSc1nnc(-c2ccoc2C)n1N)C1CCS(=O)(=O)C1 (stereo not drawn)
slope: 0.00528 (inactive)

Compound: Cc1nc2scc(-c3ccco3)c2c(=O)n1/N=C/N(C)C
slope: 0.00533 (inactive)

Lab note: next compound to report on.
# input compound: CC1=C(C(=O)OC2CCCC2)C(c2ccc(C)o2)C2=C(CC(c3cccs3)CC2=O)N1 (stereo not drawn) ; wanted: its slope
0.00301 (inactive)

###

The reader will find reported NADPH fluorescence slope values listed item by item below.
Target of assay: Voltage-gated potassium channel subunit beta-2 (Rattus norvegicus)
Method summary: enhancers of rat Kvbeta2 NADPH turnover – biochemical, NADPH fluorescence, primary screen (AID 623);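 further: fluorescence intensity change per second fitted from 20 to 320 s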
Measurement conditions: Recombinant KvBeta, NADPH fluorescence decrease slope, 10 min; at 10 µM; stronger effect = lower value
No unit in the answer, please; the number alone is enough.

Below: 2 molecules and their reported NADPH fluorescence slope.
Smiles notation: Cc1nn(C)c(C)c1NC(=O)CSc1nc(Cc2ccccc2)nc2c1cnn2-c1ccccc1
NADPH fluorescence slope: -6.6e-05
//
Smiles notation: Cc1cc(C)c(C#N)c(SCc2ccc(C#N)cc2)n1
NADPH fluorescence slope: -5.8e-05

Lab note: next molecule to report on.
# input molecule: COc1ccc(S(=O)(=O)N(CC(=O)N2CCN(c3ccccc3OC)CC2)c2ccccc2)cc1 ; wanted: its NADPH fluorescence slope
-4.9e-05

###

Target of assay: Alpha-2C adrenergic receptor (Homo sapiens) (UniProt P18825)
Sequence (P18825 whole entry, looked up): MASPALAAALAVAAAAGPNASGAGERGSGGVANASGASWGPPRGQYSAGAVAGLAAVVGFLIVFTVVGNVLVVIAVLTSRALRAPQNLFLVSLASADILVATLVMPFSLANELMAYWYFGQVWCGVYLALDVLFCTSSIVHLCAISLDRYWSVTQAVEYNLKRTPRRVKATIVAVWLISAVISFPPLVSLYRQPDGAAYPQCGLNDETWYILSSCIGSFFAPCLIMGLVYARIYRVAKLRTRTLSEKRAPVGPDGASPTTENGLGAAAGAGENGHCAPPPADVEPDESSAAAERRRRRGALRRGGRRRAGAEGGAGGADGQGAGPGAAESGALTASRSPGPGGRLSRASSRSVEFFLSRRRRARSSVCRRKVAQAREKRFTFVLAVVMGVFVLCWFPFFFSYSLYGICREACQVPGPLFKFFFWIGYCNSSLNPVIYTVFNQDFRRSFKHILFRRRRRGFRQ
Method summary: compounds altering alpha2C-coupled GIRK flux – cell-based, HEK293 alpha2C/GIRK1/2, thallium flux, primary screen (AID 624);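 further: slope of fluorescence ratio to pre-addition baseline per second over 15 to 24 s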
Measurement conditions: thallium flux BTC fluorescence, at 10 µM, actives lie on both sides
Activity calls are given as the source filed them.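 How the source made its calls: active means fluorescence slope after compound addition differing from the mean of all screened samples at 99.7% confidence, in either direction; inactive means the rest.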
Test readout: slope

Below: 2 compounds and their reported slope.
Compound: COc1ccc(-c2nnc(-c3cccs3)o2)cc1OC
slope: 0.00689 (inactive)
--
Compound: CCOC(=O)c1sc2nc(NC(=O)C(C)(C)C)sc2c1C
slope: 0.00604 (inactive)

Lab note: next compound to report on.
# input compound: COc1ccc(NC(=O)C(C)NS(=O)(=O)c2ccc(NC(C)=O)cc2)cc1Cl (stereo not drawn) ; wanted: its slope
0.00739 (inactive)

###

Method summary: TLR3 IRF3 reporter activation blockers – cell-based, poly I:C stimulus, luciferase, 10K MLSCN set, primary screen (AID 602277)
Measurement conditions: HEK293-TLR3 RL24 IRF3 luciferase reporter, at 10 µM, stronger effect = higher value
The reader will find reported inhibition values listed item by item below.
Report the value in % with no unit label.

Compound: CC(C)OC(=O)CSc1nnc(-c2ccc(C(C)(C)C)cc2)n1N
inhibition / %: 14
--
Compound: O=C(CSCc1ccccn1)Nc1ccccc1
inhibition / %: -49
--
Compound: CN1CC=C2C(C#N)=C(N)C(C#N)(C#N)C(Cc3ccccc3)C2C1 (stereo not given)
inhibition / %: 8.81
--
Compound: Fc1ccccc1C(c1nnnn1Cc1ccc2c(c1)OCO2)N1CCN(Cc2ccccc2)CC1 (stereo not given)
inhibition / %: -3.59
--
Compound: COc1ccc(C)cc1NC(=O)CN(Cc1nnc(-c2ccc(Cl)cc2)o1)C1CCCC1
inhibition / %: -33.6
--
Compound: CCOCCCNC(=O)C1CCN(S(=O)(=O)N(CC(C)C)CC(C)C)CC1
inhibition / %: 19.9
--
Compound: S=C(c1ccc(-c2cc(Cl)ccc2Cl)o1)N1CCOCC1
inhibition / %: 8.92
--
Compound: COc1ccc(N=c2scc(-c3ccc(S(=O)(=O)N4CCOCC4)cc3)n2CCCO)cc1
inhibition / %: -19.4

# input compound: CN(Cc1ccccc1)C(=O)c1ccc2c(c1)OCO2 ; wanted: its inhibition
-20.3

Now the compound Cc1ccnc(NC(=O)C2CCC(CNc3c(N4CCCC4)c(=O)c3=O)CC2)c1 (stereo not given)
18.4

###

Target of assay: Alpha-2C adrenergic receptor (Homo sapiens) (UniProt P18825)
Method summary: compounds altering alpha2C-coupled GIRK flux – cell-based, HEK293 alpha2C/GIRK1/2, thallium flux, primary screen (AID 624);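 further: slope of fluorescence ratio to pre-addition baseline per second over 15 to 24 s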
Measurement conditions: thallium flux BTC fluorescence, at 10 µM, actives lie on both sides
Label T when slope is at or above 0.006; otherwise label F.

Molecule: CC1CN(C(=O)c2scc3c2OCCO3)CC(C)O1 (stereo not given)
Target of assay: Alpha-2C adrenergic receptor (Homo sapiens) (UniProt P18825)
Discrete label: T
//
Molecule: CCN(CC)CCCN1C(=O)C(=O)/C(=C(/O)c2ccc3c(c2)OCO3)C1c1ccccn1 (stereo not given)
Target of assay: Alpha-2C adrenergic receptor (Homo sapiens) (UniProt P18825)
Discrete label: F
//
Molecule: Cc1cc(NS(=O)(=O)c2ccc(Nc3nc(-c4sc(N)nc4C)cs3)cc2)no1
Target of assay: Alpha-2C adrenergic receptor (Homo sapiens) (UniProt P18825)
Discrete label: F
//
Molecule: CCOC(=O)Nc1c(O)ccc2oc(C)c(-c3ccccc3)c12
Target of assay: Alpha-2C adrenergic receptor (Homo sapiens) (UniProt P18825)
Discrete label: F
//
Molecule: CC1CCN(S(=O)(=O)c2ccc3[nH]cc(C(=O)NCCN4CCOCC4)c(=O)c3c2)CC1
Target of assay: Alpha-2C adrenergic receptor (Homo sapiens) (UniProt P18825)
Discrete label: F

Dear colleague, could you confirm whether COC(=O)c1ccc(-c2nn(C)c(=O)c3ccccc23)cc1 has slope at or above 0.006?
T

Now the molecule COc1ccc(-c2ccc(-c3noc(-c4cccs4)n3)c(OC)n2)cc1
F

Now the molecule CC(C)(C)SCCNC(=O)CSc1ccccc1
F

###

The reader will find reported NADPH fluorescence slope values listed item by item below.
Target of assay: Voltage-gated potassium channel subunit beta-2 (Rattus norvegicus) (UniProt P62483)
Sequence (P62483 whole entry, looked up): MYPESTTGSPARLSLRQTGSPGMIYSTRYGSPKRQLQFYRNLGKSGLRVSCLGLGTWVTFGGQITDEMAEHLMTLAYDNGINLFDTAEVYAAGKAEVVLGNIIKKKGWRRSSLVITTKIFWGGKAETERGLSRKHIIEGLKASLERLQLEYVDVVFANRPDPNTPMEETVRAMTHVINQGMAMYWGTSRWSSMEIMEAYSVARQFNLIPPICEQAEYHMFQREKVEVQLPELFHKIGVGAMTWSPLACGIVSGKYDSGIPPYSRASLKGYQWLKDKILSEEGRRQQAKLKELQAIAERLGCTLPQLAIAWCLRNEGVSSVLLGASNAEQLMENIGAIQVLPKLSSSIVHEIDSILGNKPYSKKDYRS
Method summary: enhancers of rat Kvbeta2 NADPH turnover – biochemical, NADPH fluorescence, primary screen (AID 623);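 further: fluorescence intensity change per second fitted from 20 to 320 s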
Measurement conditions: Recombinant KvBeta, NADPH fluorescence decrease slope, 10 min; at 10 µM; stronger effect = lower value
No unit in the answer, please; the number alone is enough.

Below: 3 compounds and their reported NADPH fluorescence slope.
Compound: Cn1c(SCC(=O)Nc2ccc3c(c2)oc2ccccc23)nnc1-c1ccccc1
Recorded value: -0.000134
--
Compound: Cc1cc(NC(=O)COc2cccc(Oc3ccccc3)c2)no1
Recorded value: -7.6e-05
--
Compound: COC(=O)COc1cccc(NC(=O)COc2ccccc2)c1
Recorded value: 3.4e-07

# input compound: NC(=O)C1CCN(C(=S)c2cccs2)CC1 ; wanted: its NADPH fluorescence slope
-1.4e-06

Now the compound Cc1cc(-n2c(C)cc(C(=O)CSc3nc4ccccc4c(=O)n3Cc3ccco3)c2C)no1
-2e-05

Now the compound COc1ccc(CN(CC(=O)NCc2ccco2)C(=O)CCC(=O)Nc2nccs2)cc1
-3.8e-05

###

Method summary: inhibitors of TNFa-induced NFkB p65 translocation, primary screen, imaging, HUVEC, MLSMR starter and 10KST1 sets (AID 438);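 further: compound added about 3h40 before a 20 min TNFalpha stimulation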
Measurement conditions: HUVEC TNFa-induced p65 nuclear translocation; measured here: nuclei count (cytotoxicity indicator), at 2.08 µM
Test readout: cell count
No unit in the answer, please; the number alone is enough.

Molecule: O=C(C1CCCN(S(=O)(=O)c2cccnc2)C1)N1CCn2c1nc1ccccc12 (stereo not drawn)
cell count: 639
//
Molecule: Nc1nc(SCc2nc3scc(-c4cccs4)c3c(=O)[nH]2)n[nH]1
cell count: 473
//
Molecule: COc1cccc2cc(C(=O)OC3CCN(C)CC3)c(=O)oc12
cell count: 532
//
Molecule: O=C(O)c1ccc2c3c(ncnc13)-c1ccccc1C2=O
cell count: 336
//
Molecule: O=C(CSc1nc(-c2ccco2)cc(C(F)(F)F)n1)NCCCn1ccnc1
cell count: 674
//
Molecule: Nn1c(SCC(=O)NC2CCCCC2)nnc1-c1ccc(Cl)cc1
cell count: 376
//
Molecule: COc1ccc(NC(=O)C(C)NS(=O)(=O)c2ccc(NC(C)=O)cc2)cc1Cl (stereo not drawn)
cell count: 788
//
Molecule: CCCc1c(O)nc(SCC(=O)NCCc2ccc(OC)c(OC)c2)[nH]c1=O
cell count: 581

# input molecule: COc1ccccc1N1CCN(c2cc(=O)n(Cc3ccc(F)cc3)c(=O)[nH]2)CC1 ; wanted: its cell count
503

###

Method summary: blockers of RIG-like receptor reporter activation – cell-based, Sendai virus stimulus, luciferase, 10K MLSCN set, TLR/RLR signaling modifier project, primary screen (AID 602276);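 further: firefly luciferase from ISG56 promoter only with Renilla not read in this screen; 0% = Sendai virus plus DMSO and 100% = medium plus DMSO without virus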
Measurement conditions: HEK293 RL24 IRF3 luciferase reporter, at 10 µM, stronger effect = higher value
Label class 1 when inhibition is at or above 10%; otherwise label class 0.

Compound: CC1CCN(Cc2nc3c(c(=O)n(C)c(=O)n3C)n2Cc2cccc3ccccc23)CC1
Discrete label: class 1
--
Compound: CCCCCc1c(C)nc(SCC(=O)O)[nH]c1=O
Discrete label: class 0
--
Compound: COc1ccccc1Nc1nc2ccccc2[nH]1
Discrete label: class 0
--
Compound: CCOc1cc(C2CC(=O)N3CN(C4CCCCC4)CSC3=C2C#N)ccc1O (configuration not stated)
Discrete label: class 1
--
Compound: COc1ccc(C(=O)NCCSc2ccccn2)cc1
Discrete label: class 0

Dear colleague, could you confirm whether CCOCCCn1c(=S)[nH]c2cc3c(cc2c1=O)OCO3 has inhibition at or above 10%?
class 0

Now the compound COCCN(CCOC)S(=O)(=O)c1ccc(C(=O)Nc2nnc(C3CC3)o2)cc1
class 1
